# measured_on: hSTING (Homo sapiens, UniProt Q86WV6, G230A/H232R/R293Q/R71H)
# Construct: host or cells: THP1-Dual KO-IFNAR2 cells
# Sequence (Q86WV6 whole entry R71H/G230A/H232R/R293Q): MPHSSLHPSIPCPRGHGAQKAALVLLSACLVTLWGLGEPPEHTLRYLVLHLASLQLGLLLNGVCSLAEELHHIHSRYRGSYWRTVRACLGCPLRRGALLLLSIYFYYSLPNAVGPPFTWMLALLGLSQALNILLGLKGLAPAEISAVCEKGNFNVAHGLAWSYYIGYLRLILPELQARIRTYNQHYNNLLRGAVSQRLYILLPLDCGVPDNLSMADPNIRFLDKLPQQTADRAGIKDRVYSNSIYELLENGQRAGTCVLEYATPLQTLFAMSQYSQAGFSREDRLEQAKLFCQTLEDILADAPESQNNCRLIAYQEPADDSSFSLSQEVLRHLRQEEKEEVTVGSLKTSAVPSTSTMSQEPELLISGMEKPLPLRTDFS
# assay_notes: STING reporter assay (luciferase) in THP1-Dual KO-IFNAR2 cells stimulated with 2′3′cGAMP
# Assay type: cell-based
# test_parameters: 2′3′cGAMP 15 μM, 24 h, class symbols
pEC50: −log10 of the molar value.
Some molecules, each annotated with its measured pEC50.

Reference set (3 entries):
Noted for Cc1cc(NC(=O)Nc2c[nH]c3cccnc23)cnc1C1CCC(F)(F)CC1 [Compound 136] : its pEC50 reads 4.00 to 5.30

Field pEC50 (entry O=C(Nc1ccc(C2CCC(F)(F)CC2)nc1)Nc1cn(C(=O)c2ccccc2)c2ncc(F)cc12 [Compound 121] ) reads 6.00 to 6.70

Form: molecule = O=C(Nc1cnc(OC2CCC2)c(F)c1)Nc1c[nH]c2ncc(F)cc12 [Compound 111] ; pEC50 = 6.00 to 6.70

Proceeding to the next molecule to report its pEC50.
Recorded pEC50 (molecule CC(O)c1cc(NC(=O)Nc2c[nH]c3ncc(F)cc23)cnc1N1CCC(F)(F)CC1 (stereo not shown) [Compound 138] ): 5.30 to 6.00

====

# measured_on: hSTING (Homo sapiens, UniProt Q86WV6, G230A/H232R/R293Q/R71H)
# Construct: host or cells: THP1-Dual KO-IFNAR2 cells
# assay_notes: STING reporter assay (luciferase) in THP1-Dual KO-IFNAR2 cells stimulated with 2′3′cGAMP
# Format: cell-based
# test_parameters: 2′3′cGAMP 15 μM, 24 h, class symbols
# Description: STING pathway activation by the compounds described herein was measured using THP1-Dual™ cells (KO-IFNAR2). […] 2 mL of solution A and 2 ml Solution B was mixed and incubated for 20 min at room temperature (RT). […] Luciferase reporter activity was then measured. EC50 values were calculated by using standard methods known in the art. […] Luciferase reporter activity was then measured. EC50 values were calculated by using standard methods known in the art.
pEC50: −log10 of the molar value.
attribute_measured: pEC50

Here are 10 molecules together with their reported answers.
pEC50 reading for COc1ccc2[nH]cc(NC(=O)Nc3cnc(N4CCC(F)(F)CC4)c(C)c3)c2n1 : 6.00 to 6.70

Looking up O=C(Nc1cc(Cl)c(C2CCC(F)(F)CC2)cn1)Nc1c[nH]c2ncc(F)cc12 , I found its pEC50 recorded as 6.70 to 7.40

COCCOc1ccc2[nH]cc(NC(=O)Nc3cnc(C4CCC(F)(F)CC4)c(Cl)c3)c2n1 yielded pEC50 of 6.00 to 6.70

For O=C(Nc1cc(Cl)c(N2CCC(F)(F)CC2)cn1)Nc1c[nH]c2ncc(F)cc12 the molecule record lists pEC50 as 6.00 to 6.70

// sample O=C(Nc1cnc(N2CCC(F)(F)CC2)c(Cl)c1)Nc1c[nH]c2ccc(OCC(F)(F)F)nc12 , its pEC50 was 6.00 to 6.70

Data point: CCc1cc(NC(=O)Nc2c[nH]c3ncc(F)cc23)cnc1N1CCC(F)(F)CC1 ; pEC50 = 6.00 to 6.70

For O=C(Nc1cnc(N2CCC3(CC2)CC3)c(Cl)c1)Nc1c[nH]c2cccnc12 the molecule record lists pEC50 as 6.00 to 6.70

Record O=C(Nc1cnc(N2CCC(F)(F)CC2)c(Cl)c1)Nc1c[nH]c2ncc(F)cc12 , field pEC50: 6.70 to 7.40

Memo: CC(C)(C)OC(=O)N1CCC(n2cc(NC(=O)Nc3ccc(C4CCC(F)(F)CC4)nc3)c3cc(F)cnc32)CC1 , reported pEC50: 4.00 to 5.30

// pEC50 value for COCCOc1ccc2[nH]cc(NC(=O)Nc3ccc(C4CCC(F)(F)CC4)nc3)c2n1 : 5.30 to 6.00

Now look at this entry.
response.value for O=C(Nc1ccc(C2CCC(F)(F)CC2)nc1)Nc1c[nH]c2ncc(F)c(Br)c12 (field: pEC50) = 4.00 to 5.30
